# Procedure Details: Timed organ biodistribution of [^64Cu]Cu-DOTATATE by ex vivo gamma counting
# Format: in vivo, mice
# Assay Conditions: mouse, tail, intravenous, 1.85 MBq, total radioactivity; female C57BL/6 mice, 1 min after injection, median (IQR), N=3-7; read-out: Tissue radioactivity, tail
Endpoint: tissue uptake at 1 min (%ID/g)
Numeric only. Scale: %ID/g

For the compound C[C@@H](O)[C@H](NC(=O)[C@@H]1CSSC[C@H](NC(=O)[C@@H](Cc2ccccc2)NC(=O)CN2CCN(CC(=O)O)CCN(CC(=O)O)CCN(CC(=O)O)CC2)C(=O)N[C@@H](Cc2ccc(O)cc2)C(=O)N[C@H](Cc2c[nH]c3ccccc23)C(=O)N[C@@H](CCCCN)C(=O)N[C@@H]([C@@H](C)O)C(=O)N1)C(=O)O [[^64Cu]Cu-DOTATATE, metal not drawn] , give its reported tissue uptake at 1 min.
3.5

====

# Procedure Details: Timed organ biodistribution of [^64Cu]Cu-DOTATATE by ex vivo gamma counting
# Assay type: in vivo, mice
# Assay Conditions: mouse, spleen, intravenous, 1.85 MBq, total radioactivity; female Apoe^-/- mice 12 weeks on Western Diet, 15 min after injection, median (IQR), N=3-8; read-out: Tissue radioactivity, spleen
Endpoint: tissue uptake at 0.25 h (%ID/g)
The figure you give is taken to be in %ID/g; do not add the unit.

Respond only with tissue uptake at 0.25 h recorded for C[C@@H](O)[C@H](NC(=O)[C@@H]1CSSC[C@H](NC(=O)[C@@H](Cc2ccccc2)NC(=O)CN2CCN(CC(=O)O)CCN(CC(=O)O)CCN(CC(=O)O)CC2)C(=O)N[C@@H](Cc2ccc(O)cc2)C(=O)N[C@H](Cc2c[nH]c3ccccc23)C(=O)N[C@@H](CCCCN)C(=O)N[C@@H]([C@@H](C)O)C(=O)N1)C(=O)O [[^64Cu]Cu-DOTATATE, metal not drawn]
1.2

====

# Procedure Details: Organ biodistribution of [^68Ga]Ga-DOTATATE by ex vivo gamma counting
# Format: in vivo, New Zealand White rabbits
# Assay Conditions: male, New Zealand White, rabbit, bone marrow, intravenous, 190 MBq, total radioactivity, male control rabbits, 200 min after tracer injection, median (IQR), N = 6; read-out: Tissue radioactivity, bone marrow
Endpoint: tissue uptake at 200 min (%ID/g)
Expressed in %ID/g, but write only the number.

Return value of tissue uptake at 200 min for input C[C@@H](O)[C@H](NC(=O)[C@@H]1CSSC[C@H](NC(=O)[C@@H](Cc2ccccc2)NC(=O)CN2CCN(CC(=O)O)CCN(CC(=O)O)CCN(CC(=O)O)CC2)C(=O)N[C@@H](Cc2ccc(O)cc2)C(=O)N[C@H](Cc2c[nH]c3ccccc23)C(=O)N[C@@H](CCCCN)C(=O)N[C@@H]([C@@H](C)O)C(=O)N1)C(=O)O [[^68Ga]Ga-DOTATATE, metal not drawn] , no commentary.
0.003

====

# Procedure Details: Timed organ biodistribution of [^64Cu]Cu-DOTATATE by ex vivo gamma counting
# Type: in vivo, mice
# Assay Conditions: mouse, muscle, intravenous, 1.85 MBq, total radioactivity; female Apoe^-/- mice 12 weeks on Western Diet, 1 min after injection, median (IQR), N=3-8; read-out: Tissue radioactivity, muscle
Endpoint: tissue uptake at 1 min (%ID/g)
Value expressed in %ID/g; do not type the unit.

Name the recorded tissue uptake at 1 min of the compound listed here: C[C@@H](O)[C@H](NC(=O)[C@@H]1CSSC[C@H](NC(=O)[C@@H](Cc2ccccc2)NC(=O)CN2CCN(CC(=O)O)CCN(CC(=O)O)CCN(CC(=O)O)CC2)C(=O)N[C@@H](Cc2ccc(O)cc2)C(=O)N[C@H](Cc2c[nH]c3ccccc23)C(=O)N[C@@H](CCCCN)C(=O)N[C@@H]([C@@H](C)O)C(=O)N1)C(=O)O [[^64Cu]Cu-DOTATATE, metal not drawn]
1.2

====

# Procedure Details: Timed organ biodistribution of [^64Cu]Cu-DOTATATE by ex vivo gamma counting
# Type: in vivo, mice
# Assay Conditions: mouse, bladder, intravenous, 1.85 MBq, total radioactivity; female C57BL/6 mice, 15 min after injection, median (IQR), N=3-7; read-out: Tissue radioactivity, bladder
Endpoint: tissue uptake at 0.25 h (%ID/g)
# unit: %ID/g | format: bare number

Give the reported tissue uptake at 0.25 h for this molecule. C[C@@H](O)[C@H](NC(=O)[C@@H]1CSSC[C@H](NC(=O)[C@@H](Cc2ccccc2)NC(=O)CN2CCN(CC(=O)O)CCN(CC(=O)O)CCN(CC(=O)O)CC2)C(=O)N[C@@H](Cc2ccc(O)cc2)C(=O)N[C@H](Cc2c[nH]c3ccccc23)C(=O)N[C@@H](CCCCN)C(=O)N[C@@H]([C@@H](C)O)C(=O)N1)C(=O)O [[^64Cu]Cu-DOTATATE, metal not drawn]
7.9

====

# Procedure Details: Timed organ biodistribution of [^64Cu]Cu-DOTATATE by ex vivo gamma counting
# Format: in vivo, mice
# Assay Conditions: mouse, adrenal gland, intravenous, 1.85 MBq, total radioactivity; female C57BL/6 mice, 60 min after injection, median (IQR), N=3-7; read-out: Tissue radioactivity, adrenal gland
Endpoint: tissue uptake at 1 h (%ID/g)
Provide the reading as a plain figure in %ID/g.

Please give the documented tissue uptake at 1 h of C[C@@H](O)[C@H](NC(=O)[C@@H]1CSSC[C@H](NC(=O)[C@@H](Cc2ccccc2)NC(=O)CN2CCN(CC(=O)O)CCN(CC(=O)O)CCN(CC(=O)O)CC2)C(=O)N[C@@H](Cc2ccc(O)cc2)C(=O)N[C@H](Cc2c[nH]c3ccccc23)C(=O)N[C@@H](CCCCN)C(=O)N[C@@H]([C@@H](C)O)C(=O)N1)C(=O)O [[^64Cu]Cu-DOTATATE, metal not drawn]
1.6

The reported numbers originate from paper PMC9007951.
